Tested on: AncSZ
Experiment: phosphorylation enrichment, bacterial display (enrichment ratio); higher = better substrate or ligand; peptides without Tyr show the background;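 further: 11-residue human phosphosite peptides and single-mutation variants displayed on the E. coli surface, counted by deep sequencing, each peptide's frequency after selection divided by its frequency in the unselected input library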;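 further: frequency after pTyr selection over input frequency; kinase dosed for 20-30% of maximal phosphorylation in three min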
Listing of recorded phosphorylation enrichment by entry.
Recorded endpoint: phosphorylation enrichment

[[record]]
ordered_residues = "EILLSYLRTGF [TGM1_Y365_YF]"
recorded_endpoint = "phosphorylation enrichment"
assay_value = 1.05

[[record]]
ordered_residues = "SGSIHYSCVPR [GLB1_Y57_R59C]"
recorded_endpoint = "phosphorylation enrichment"
assay_value = 1.05

[[record]]
ordered_residues = "YVKEPYIQSRF [HIPK4_Y175]"
recorded_endpoint = "phosphorylation enrichment"
assay_value = 0.628

[[record]]
ordered_residues = "PTKNDYWAMLA [WWOX_Y287]"
recorded_endpoint = "phosphorylation enrichment"
assay_value = 1.64

[[record]]
ordered_residues = "PPSELYFVKVD [TERT_Y707_P704S]"
recorded_endpoint = "phosphorylation enrichment"
assay_value = 1.19

[[record]]
ordered_residues = "AEEKEYHAEEG [EGFR_Y869_G873E]"
recorded_endpoint = "phosphorylation enrichment"
assay_value = 1.29

[[record]]
ordered_residues = "HTLQLYRCREE [ALPK3_Y342]"
recorded_endpoint = "phosphorylation enrichment"
assay_value = 0.953

[[record]]
ordered_residues = "APTSGYREFVH [IL4R_Y575_Q576R]"
recorded_endpoint = "phosphorylation enrichment"
assay_value = 0.681

[[record]]
ordered_residues = "FTDGQYWIRGR [ACSF3_Y466_K462T]"
recorded_endpoint = "phosphorylation enrichment"
assay_value = 1.02

[[record]]
ordered_residues = "IRQGHYESLKE [MTR_Y921_D919G]"
recorded_endpoint = "phosphorylation enrichment"
assay_value = 0.573

[[record]]
ordered_residues = "VYLGAYDRFLP [SLC22A5_Y486]"
recorded_endpoint = "phosphorylation enrichment"
assay_value = 1.25

[[record]]
ordered_residues = "IGEGTYRTVFK [CDK5_Y15_G16R]"
recorded_endpoint = "phosphorylation enrichment"
assay_value = 0.542

[[record]]
ordered_residues = "FETVKYFNNER [ABCB7_Y345_YF]"
recorded_endpoint = "phosphorylation enrichment"
assay_value = 0.828

[[record]]
ordered_residues = "VLVSQYEKLDA [AMZ2_Y26_N30D]"
recorded_endpoint = "phosphorylation enrichment"
assay_value = 0.808


---

Target: Jak2 (UniProt O60674)
Sequence (O60674 whole entry, looked up): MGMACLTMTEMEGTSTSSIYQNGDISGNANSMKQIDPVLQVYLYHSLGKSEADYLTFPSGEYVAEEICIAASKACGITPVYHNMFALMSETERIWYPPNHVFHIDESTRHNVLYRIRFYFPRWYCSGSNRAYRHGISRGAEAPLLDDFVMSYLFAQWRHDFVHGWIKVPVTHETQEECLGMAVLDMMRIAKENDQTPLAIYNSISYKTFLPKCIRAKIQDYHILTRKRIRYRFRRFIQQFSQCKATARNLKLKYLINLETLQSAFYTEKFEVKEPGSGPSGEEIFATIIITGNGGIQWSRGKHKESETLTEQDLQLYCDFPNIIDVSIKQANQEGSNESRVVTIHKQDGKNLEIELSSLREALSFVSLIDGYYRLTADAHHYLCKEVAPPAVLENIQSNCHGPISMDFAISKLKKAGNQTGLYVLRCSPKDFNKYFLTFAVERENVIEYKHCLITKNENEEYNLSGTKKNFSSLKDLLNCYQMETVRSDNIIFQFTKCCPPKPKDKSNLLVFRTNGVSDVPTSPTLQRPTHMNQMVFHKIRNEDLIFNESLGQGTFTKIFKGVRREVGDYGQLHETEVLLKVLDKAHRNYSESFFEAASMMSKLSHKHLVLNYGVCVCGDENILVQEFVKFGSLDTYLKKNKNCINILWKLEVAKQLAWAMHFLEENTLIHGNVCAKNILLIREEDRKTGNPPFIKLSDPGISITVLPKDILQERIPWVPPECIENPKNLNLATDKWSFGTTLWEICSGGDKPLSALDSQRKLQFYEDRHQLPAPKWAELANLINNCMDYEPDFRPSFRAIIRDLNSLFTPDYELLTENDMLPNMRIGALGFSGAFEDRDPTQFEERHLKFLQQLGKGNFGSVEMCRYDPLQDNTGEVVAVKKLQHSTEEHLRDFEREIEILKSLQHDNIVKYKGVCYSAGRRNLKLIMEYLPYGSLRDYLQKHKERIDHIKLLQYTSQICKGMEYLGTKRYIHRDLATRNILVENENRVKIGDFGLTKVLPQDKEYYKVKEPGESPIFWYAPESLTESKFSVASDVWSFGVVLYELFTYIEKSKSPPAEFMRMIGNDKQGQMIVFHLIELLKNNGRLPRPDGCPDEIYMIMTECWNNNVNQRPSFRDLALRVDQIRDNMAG
Test: phosphorylation enrichment, bacterial display (enrichment ratio); higher = better substrate or ligand; peptides without Tyr show the background
Categories are assigned from the measured phosphorylation enrichment using these intervals: b0 = under 0.7, b1 = from 0.7 up to 1, b2 = 1 and over

[[record]]
ordered_residues = "LKMLVYMDMSK [LRRC7_Y234_L235M]"
class_name = "b2"

[[record]]
ordered_residues = "AEQEEYSAMRD [NRAS_Y64_G60E]"
class_name = "b2"

[[record]]
ordered_residues = "YGPPQYNIQYS [ERBB2IP_Y977]"
class_name = "b0"

[[record]]
ordered_residues = "DFSLKYPTDIP [APC_Y1183_A1184P_YF]"
class_name = "b1"

[[record]]
ordered_residues = "GKGGSYSQAAS [HLA-B_Y344_C349S]"
class_name = "b0"

[[record]]
ordered_residues = "RLRKYHLGKYL [KLB_Y906_Y906H]"
class_name = "b0"

[[record]]
ordered_residues = "GKTQQYECKWF [BCR_Y751_D752E_YF]"
class_name = "b1"

[[record]]
ordered_residues = "ETKKQYDSFTF [TMED3_Y85_YF]"
class_name = "b1"

[[record]]
ordered_residues = "IHETTHNSIMK [ACTA1_Y281_Y281H]"
class_name = "b0"

[[record]]
ordered_residues = "QGIFGYHHFMQ [UFSP2_Y287_YF]"
class_name = "b2"

[[record]]
ordered_residues = "CPPELYALMSD [ZAP70_Y569]"
class_name = "b1"

[[record]]
ordered_residues = "FYNSEYGELSE [FLT4_Y1337]"
class_name = "b2"

[[record]]
ordered_residues = "EGDGVYTLNNE [HP_Y125]"
class_name = "b1"

[[record]]
ordered_residues = "KRLYAYKMLMA [TMC2_Y209_Q205R]"
class_name = "b0"

[[record]]
ordered_residues = "IIQRAYRRHLL [SCN1A_Y1926]"
class_name = "b0"

[[record]]
ordered_residues = "DQVEQYKKELE [LMNA_Y259]"
class_name = "b1"

[[record]]
ordered_residues = "ADEEFYEIIAA [FEStide_F_2014]"
class_name = "b2"

[[record]]
ordered_residues = "RALLNYIASKF [GSTA3_Y74_I71L_YF]"
class_name = "b0"

[[record]]
ordered_residues = "MLNTNYHLPPS [MT-ATP8_Y33]"
class_name = "b0"

[[record]]
ordered_residues = "RVQQIYSDSDL [MIB1_Y376]"
class_name = "b1"

[[record]]
ordered_residues = "FADIAYNYRDG [PAH_Y166_H170D]"
class_name = "b2"

[[record]]
ordered_residues = "INNKMYDPKMN [ENPP1_Y280_D276N]"
class_name = "b0"

[[record]]
ordered_residues = "CRPPFYHRNCM [HGD_Y334_F329C_YF]"
class_name = "b0"

[[record]]
ordered_residues = "YSIDYYRVGGH [NTRK2_Y707_T704I]"
class_name = "b2"

[[record]]
ordered_residues = "VASSLYDIFAR [GLB1_Y294_L297F]"
class_name = "b1"

[[record]]
ordered_residues = "VLVSQYEKLDA [AMZ2_Y26_N30D]"
class_name = "b1"

